All figures here come from paper PMC5712521.

Listed here are molecules together with their documented SCD1 mRNA.
system: SKMEL-28 cells; test: RT-qPCR of LXR-responsive genes; assay type: cell-based, human; details: SKMEL-28, siCT, 8 h; 2.5 µM DDA, 10 µM 22(R)HC, 1 µM GW, 100 nM TO; vs vehicle
# value in fold; strip the unit string

Example entries begin here.
{"MOLECULE": "O=S(=O)(c1ccccc1)N(CC(F)(F)F)c1ccc(C(O)(C(F)(F)F)C(F)(F)F)cc1 [TO, TO901317]", "SCD1 mRNA [fold]": 1.8}
{"MOLECULE": "CC(C)CC[C@@H](O)[C@@H](C)[C@H]1CC[C@H]2[C@@H]3CC=C4C[C@@H](O)CC[C@]4(C)[C@H]3CC[C@]12C [22(R)HC, 22(R)-hydroxycholesterol]", "SCD1 mRNA [fold]": 1.0}
{"MOLECULE": "O=C(O)Cc1cccc(OCCCN(Cc2cccc(C(F)(F)F)c2Cl)CC(c2ccccc2)c2ccccc2)c1 [GW, GW3965]", "SCD1 mRNA [fold]": 1.6}

Now turn to the next molecule.
Briefly, SCD1 mRNA measured for CC(C)CCC[C@@H](C)[C@H]1CC[C@H]2[C@@H]3C[C@@H](NCCc4cnc[nH]4)[C@@]4(O)C[C@@H](O)CC[C@]4(C)[C@H]3CC[C@]12C [DDA, Dendrogenin A] : 2.2

----------
tested on: SKMEL-28 cells; assay: RT-qPCR of LXR-responsive genes; assay type: cell-based, human; details: SKMEL-28, siLXRβ, 8 h; 2.5 µM DDA, 10 µM 22(R)HC, 1 µM GW, 100 nM TO; vs vehicle
MEASURED_PROPERTY: ABCA1 mRNA (fold)
Return type: number; implicit unit fold.

{"MOLECULE": "CC(C)CC[C@@H](O)[C@@H](C)[C@H]1CC[C@H]2[C@@H]3CC=C4C[C@@H](O)CC[C@]4(C)[C@H]3CC[C@]12C [22(R)HC, 22(R)-hydroxycholesterol]", "NUMBER": 1.5}
{"MOLECULE": "O=C(O)Cc1cccc(OCCCN(Cc2cccc(C(F)(F)F)c2Cl)CC(c2ccccc2)c2ccccc2)c1", "NUMBER": 2.2}
{"MOLECULE": "CC(C)CCC[C@@H](C)[C@H]1CC[C@H]2[C@@H]3C[C@@H](NCCc4cnc[nH]4)[C@@]4(O)C[C@@H](O)CC[C@]4(C)[C@H]3CC[C@]12C", "NUMBER": 0.9}

Field ABCA1 mRNA (SKMEL-28 cells), entry O=S(=O)(c1ccccc1)N(CC(F)(F)F)c1ccc(C(O)(C(F)(F)F)C(F)(F)F)cc1 : 2.2

----------
assay: in vivo; set-up: species or system NSG mice; details: NSG, mouse, po, 20 mg/kg
MEASURED_PROPERTY: Tmax (h)
Give the value, in units of h, as a plain number.

Lab book: Tmax of CC(C)CCC[C@@H](C)[C@H]1CC[C@H]2[C@@H]3C[C@@H](NCCc4cnc[nH]4)[C@@]4(O)C[C@@H](O)CC[C@]4(C)[C@H]3CC[C@]12C noted as 3

----------
Experiment: in vivo
Design: species or system NSG mice
Details: NSG, mouse, po, 20 mg/kg, T1/2 absorption
From the text: Administration R oute p.o. i. p. i. v. T 1/2 distribution (h) - - 0.11*** […] Bars represent S.E.M. ( ***P<0.001, **P<0.01, t test). […]
MEASURED_PROPERTY: half-life (h)
Express it in h; write the number only.

The value of half-life measured for the compound CC(C)CCC[C@@H](C)[C@H]1CC[C@H]2[C@@H]3C[C@@H](NCCc4cnc[nH]4)[C@@]4(O)C[C@@H](O)CC[C@]4(C)[C@H]3CC[C@]12C [DDA, Dendrogenin A] turned out to be 43

----------
Experiment: in vivo
Design: species or system NSG mice
Conditions: NSG, mouse, ip, 20 mg/kg
From the text: Administration R oute p.o. i. p. i. v. T 1/2 distribution (h) - - 0.11*** […] Bars represent S.E.M. ( ***P<0.001, **P<0.01, t test). […]
MEASURED_PROPERTY: Cmax (µM)
Give the value in µM but do not write µM after it.

Cmax in this record for CC(C)CCC[C@@H](C)[C@H]1CC[C@H]2[C@@H]3C[C@@H](NCCc4cnc[nH]4)[C@@]4(O)C[C@@H](O)CC[C@]4(C)[C@H]3CC[C@]12C : 6.1

----------
tested on: SKMEL-28 cells; test: RT-qPCR of LXR-responsive genes; assay type: cell-based, human; details: SKMEL-28, siLXRβ, 8 h; 2.5 µM DDA, 10 µM 22(R)HC, 1 µM GW, 100 nM TO; vs vehicle
MEASURED_PROPERTY: ABCG1 mRNA (fold)
Output spec: scalar in fold, unitless text.

Per the record, O=C(O)Cc1cccc(OCCCN(Cc2cccc(C(F)(F)F)c2Cl)CC(c2ccccc2)c2ccccc2)c1 has ABCG1 mRNA of 1.2

Record CC(C)CC[C@@H](O)[C@@H](C)[C@H]1CC[C@H]2[C@@H]3CC=C4C[C@@H](O)CC[C@]4(C)[C@H]3CC[C@]12C [22(R)HC, 22(R)-hydroxycholesterol] . Reported ABCG1 mRNA: 0.2

response.value for O=S(=O)(c1ccccc1)N(CC(F)(F)F)c1ccc(C(O)(C(F)(F)F)C(F)(F)F)cc1 (field: ABCG1 mRNA) = 1.1

// field: ABCG1 mRNA; key: CC(C)CCC[C@@H](C)[C@H]1CC[C@H]2[C@@H]3C[C@@H](NCCc4cnc[nH]4)[C@@]4(O)C[C@@H](O)CC[C@]4(C)[C@H]3CC[C@]12C ; value = 0.8

----------
test system: B16F10 cells; test: RT-qPCR of LXR-responsive genes; format: cell-based, mouse; details: B16F10, siLXRβ, 8 h; 2.5 µM DDA, 10 µM 22(R)HC, 1 µM GW, 100 nM TO; vs vehicle
MEASURED_PROPERTY: LDLR mRNA (fold)
Reply with just the number (in fold).

The cases that follow already have their LDLR mRNA on record.
{"COMPOUND": "O=S(=O)(c1ccccc1)N(CC(F)(F)F)c1ccc(C(O)(C(F)(F)F)C(F)(F)F)cc1", "MEASURED_PROPERTY": "LDLR mRNA", "NUMBER": 1.0}
{"COMPOUND": "CC(C)CCC[C@@H](C)[C@H]1CC[C@H]2[C@@H]3C[C@@H](NCCc4cnc[nH]4)[C@@]4(O)C[C@@H](O)CC[C@]4(C)[C@H]3CC[C@]12C", "MEASURED_PROPERTY": "LDLR mRNA", "NUMBER": 1.0}
{"COMPOUND": "CC(C)CC[C@@H](O)[C@@H](C)[C@H]1CC[C@H]2[C@@H]3CC=C4C[C@@H](O)CC[C@]4(C)[C@H]3CC[C@]12C [22(R)HC, 22(R)-hydroxycholesterol]", "MEASURED_PROPERTY": "LDLR mRNA", "NUMBER": 1.1}

The measured LDLR mRNA that O=C(O)Cc1cccc(OCCCN(Cc2cccc(C(F)(F)F)c2Cl)CC(c2ccccc2)c2ccccc2)c1 showed for B16F10 cells is 1.0

----------
Experiment: in vivo
Set-up: species or system NSG mice
Conditions: NSG, mouse, iv, 20 mg/kg, T1/2 distribution
Excerpt: Administration R oute p.o. i. p. i. v. T 1/2 distribution (h) - - 0.11*** […] Bars represent S.E.M. ( ***P<0.001, **P<0.01, t test). […]
MEASURED_PROPERTY: half-life
Number plus unit, in that order.

Measured half-life, CC(C)CCC[C@@H](C)[C@H]1CC[C@H]2[C@@H]3C[C@@H](NCCc4cnc[nH]4)[C@@]4(O)C[C@@H](O)CC[C@]4(C)[C@H]3CC[C@]12C : 6 min

----------
test system: B16F10 cells; experiment: RT-qPCR of LXR-responsive genes; type: cell-based, mouse; conditions: B16F10, siLXRβ, 8 h; 2.5 µM DDA, 10 µM 22(R)HC, 1 µM GW, 100 nM TO; vs vehicle
MEASURED_PROPERTY: LC3B mRNA (fold)
Give the value, in units of fold, as a plain number.

{"COMPOUND": "O=C(O)Cc1cccc(OCCCN(Cc2cccc(C(F)(F)F)c2Cl)CC(c2ccccc2)c2ccccc2)c1 [GW, GW3965]", "MEASURED_TARGET": "B16F10 cells", "MEASURED_PROPERTY": "LC3B mRNA", "UNITS_OF_MEASURE": "fold", "NUMBER": 1.1}
{"COMPOUND": "CC(C)CC[C@@H](O)[C@@H](C)[C@H]1CC[C@H]2[C@@H]3CC=C4C[C@@H](O)CC[C@]4(C)[C@H]3CC[C@]12C [22(R)HC, 22(R)-hydroxycholesterol]", "MEASURED_TARGET": "B16F10 cells", "MEASURED_PROPERTY": "LC3B mRNA", "UNITS_OF_MEASURE": "fold", "NUMBER": 1.0}
{"COMPOUND": "O=S(=O)(c1ccccc1)N(CC(F)(F)F)c1ccc(C(O)(C(F)(F)F)C(F)(F)F)cc1 [TO, TO901317]", "MEASURED_TARGET": "B16F10 cells", "MEASURED_PROPERTY": "LC3B mRNA", "UNITS_OF_MEASURE": "fold", "NUMBER": 1.2}

The compound listed as CC(C)CCC[C@@H](C)[C@H]1CC[C@H]2[C@@H]3C[C@@H](NCCc4cnc[nH]4)[C@@]4(O)C[C@@H](O)CC[C@]4(C)[C@H]3CC[C@]12C [DDA, Dendrogenin A] shows LC3B mRNA equal to 1.0
